Study the reported IC50 values for Carbonic anhydrase 2 (Homo sapiens) given below; they originate from different publications.
Quick rule for you: IC50 under 3 nM gets Satisfied, anything else gets Not satisfied.

Example entries and their recorded answers appear below.
NS(=O)(=O)c1cc(C(=O)c2ccc(O)cc2)cs1 | Satisfied
CCN[C@H]1CN(CCCCOC)S(=O)(=O)c2sc(S(N)(=O)=O)cc21 | Not satisfied
O=P(O)(O)C(NS(=O)(=O)c1ccccc1)P(=O)(O)O | Not satisfied
O=P(O)(O)C(NS(=O)(=O)c1ccc(-c2cccs2)cc1)P(=O)(O)O | Not satisfied
CNCc1cc2cc(S(N)(=O)=O)oc2s1 | Not satisfied

With those in mind, consider the next compound.
Check if IC50 falls below 3 nM for CCCCCC/C(=N\OC)c1csc(S(N)(=O)=O)c1 . Not satisfied

---

Study the reported pIC50 values for Carbonic anhydrase 2 (Homo sapiens) given below; they originate from different publications.
One number for each entry, as −log10 of the molar value.

Examples with answers:
O=C1/C(=C\c2ccc([N+](=O)[O-])cc2)S/C(=N/c2ccccc2)N1Cc1ccncc1 | 4.84
NS(=O)(=O)c1cc2c(s1)S(=O)(=O)CCN2 | 8.61
COCCN(CCOC)CCC1CNc2cc(S(N)(=O)=O)sc2S1(=O)=O (stereo not drawn) | 8.67

For every listed record, write down its pIC50.
1. Cl.NS(=O)(=O)c1cc(S(=O)(=O)c2ccccc2CNCc2ccccn2)cs1
2. O=c1cc(C[n+]2cn(Cc3ccc4ccccc4c3)c3ccccc32)c2ccc(O)c(O)c2o1
3. C[C@H](CO)Nc1nc(Nc2ccc(S(N)(=O)=O)cc2)ncc1Br.Cl
4. CCC(C)NCc1cccc(S(=O)(=O)c2csc(S(N)(=O)=O)c2)c1.Cl (stereo not drawn)
5. CCCCNCc1ccc(C(=O)c2csc(S(N)(=O)=O)c2)cc1.Cl
6. CCCCC(=O)c1csc(S(N)(=O)=O)c1
7. O=P(O)(O)C(Nc1ccc(Oc2ccc(Cl)cc2)cc1)P(=O)(O)O
8. C[C@@H](O)[C@@H](C)Nc1nc(Nc2ccc([S+](N)[O-])cc2)ncc1Br (stereo partly drawn)

1. 7.82
2. 5.22
3. 6.29
4. 7.59
5. 7.92
6. 8.20
7. 5.03
8. 6.39

For every listed record, write down its pIC50.
1. CCCCCCCCSCS(N)(=O)=O
2. CCCCCCCCCS(=O)(=O)C(F)S(N)(=O)=O (stereo not drawn)
3. Cc1ccc(S(=O)(=O)NCCCN(C)C)cc1
4. COCCOCCN(CCOC)CCC1C(=O)Nc2cc(S(N)(=O)=O)sc2S1(=O)=O (stereo not drawn)
5. CO[C@@H]1O[C@H](CNC(=O)c2ccc(S(N)(=O)=O)cc2)[C@@H](O)[C@H](O)[C@@H]1O

1: 6.32; 2: 8.52; 3: 5.18; 4: 8.29; 5: 7.15

For every listed record, write down its pIC50.
1. Cc1ccc(S(=O)(=O)n2cccc2)cc1
2. COCCOCCOCS(=O)(=O)CS(N)(=O)=O
3. O=c1cc(C[n+]2cn(Cc3ccc4ccccc4c3)c3ccccc32)c2ccc(O)cc2o1

4.84
5.89
5.22

---

Study the reported pIC50 values for UniProt:P00918 given below; they originate from different publications.
Numbers only, as −log10 of the molar value.

Examples with answers:
NS(=O)(=O)c1cc2c(s1)SCC(=O)N2 | 7.89
COc1ccc(S(=O)(=O)c2coc(S(N)(=O)=O)c2)cc1 | 8.60
COCCOCCN(CCOC)Cc1cc2cc(S(N)(=O)=O)oc2s1 | 8.19

For every listed record, write down its pIC50.
1. NS(=O)(=O)c1cc(S(=O)(=O)c2ccc(O)cc2)co1
2. NS(=O)(=O)c1cc2ccccc2o1
3. O=C(O)c1ccc(S(=O)(=O)O)cc1O
4. O=[N+]([O-])c1ccc(-c2ccc(S(=O)(=O)NC(P(=O)(O)O)P(=O)(O)O)cc2)cc1
5. CC(=O)Oc1ccc2cc(S(N)(=O)=O)[nH]c2c1
6. O=C(NCCNS(=O)(=O)c1ccc(Oc2ccccc2)cc1)P(=O)(O)O
7. CCCCC(N)c1csc(S(N)(=O)=O)c1 (stereo not drawn)
8. CC(C)(C)NCc1ccc(S(=O)(=O)c2csc(S(N)(=O)=O)c2)cc1.Cl

8.38
8.10
3.14
7.15
7.49
6.09
6.20
7.44
